Recorded IC50 by entry
# system-name: Histone deacetylase 1 (Homo sapiens)
# Sequence (Q13547 whole entry, the tested form may be a part): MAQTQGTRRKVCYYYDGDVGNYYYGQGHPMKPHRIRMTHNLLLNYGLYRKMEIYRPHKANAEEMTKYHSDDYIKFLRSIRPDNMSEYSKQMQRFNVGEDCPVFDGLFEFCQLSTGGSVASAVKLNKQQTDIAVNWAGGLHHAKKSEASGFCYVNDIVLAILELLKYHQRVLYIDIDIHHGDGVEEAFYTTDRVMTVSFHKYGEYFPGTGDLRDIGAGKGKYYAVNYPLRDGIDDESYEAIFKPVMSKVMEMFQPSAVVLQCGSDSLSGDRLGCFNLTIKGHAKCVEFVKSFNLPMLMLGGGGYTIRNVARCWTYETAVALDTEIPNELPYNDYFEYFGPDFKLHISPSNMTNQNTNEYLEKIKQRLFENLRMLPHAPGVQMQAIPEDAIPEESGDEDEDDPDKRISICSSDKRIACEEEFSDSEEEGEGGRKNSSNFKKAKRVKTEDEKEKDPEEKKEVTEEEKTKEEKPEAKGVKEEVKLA
# assay-name: Inhibition of full length recombinant human HDAC1 (1 to 482 residues) expressed in Baculovirus system using Ac-Leu-Gly-Lys (Ac)-AMC as substrate pretreated for 5 mins followed by substrate addition and measured after 30 mins
parameter: IC50 (µM)

compound_structure_string=COc1cc(C(=O)c2csc(-c3ccc(NC(=O)c4ccc(C(=O)Nc5ccccc5N)cc4)cc3)n2)cc(OC)c1OC parameter=IC50 units_of_measure=µM observed_result=10.5
compound_structure_string=COc1cc(C(=O)c2csc(-c3ccc(NC(=O)/C=C/C(=O)Nc4ccccc4N)cc3)n2)cc(OC)c1OC parameter=IC50 units_of_measure=µM observed_result=14.4
compound_structure_string=COc1cc(C(=O)c2csc(-c3ccc(NC(=O)CCCCC(=O)Nc4ccccc4N)cc3)n2)cc(OC)c1OC parameter=IC50 units_of_measure=µM observed_result=8.12
compound_structure_string=COc1cc(C(=O)c2csc(-c3ccc(NC(=O)CCCC(=O)NO)cc3)n2)cc(OC)c1OC parameter=IC50 units_of_measure=µM observed_result=10.1
compound_structure_string=COc1cc(C(=O)c2csc(-c3ccc(NCCC(=O)Nc4ccccc4N)cc3)n2)cc(OC)c1OC parameter=IC50 units_of_measure=µM observed_result=10.7
compound_structure_string=COc1cc(C(=O)c2csc(-c3ccc(NC(=O)CCCCCC(=O)Nc4ccccc4N)cc3)n2)cc(OC)c1OC parameter=IC50 units_of_measure=µM observed_result=8.53
compound_structure_string=COc1cc(C(=O)c2csc(-c3ccc(NCC(=O)Nc4ccccc4N)cc3)n2)cc(OC)c1OC parameter=IC50 units_of_measure=µM observed_result=9.8
compound_structure_string=COc1cc(C(=O)c2csc(-c3ccc(/C=C/C(=O)Nc4ccccc4N)cc3)n2)cc(OC)c1OC parameter=IC50 units_of_measure=µM observed_result=11

====

# System: HCT-116
# assay-name: Antiproliferative activity against human HCT-116 cells assessed as inhibition of cell viability measured for 48 hrs by microplate reader based MTT assay
# Assay type: functional
# recorded-conditions: HCT-116, 48 h
parameter: log10 of IC50 (log10 of the value in nM)

compound_structure_string=COc1cc(C(=O)c2csc(-c3ccc(NC(=O)c4ccc(C(=O)Nc5ccccc5N)cc4)cc3)n2)cc(OC)c1OC observed_result=3.15
compound_structure_string=Nc1ccccc1NC(=O)c1ccc(CNC(=O)OCc2cccnc2)cc1 observed_result=3.24
compound_structure_string=COc1cc(C(=O)c2csc(-c3ccc(NC(=O)CCCCCCC(=O)Nc4ccccc4N)cc3)n2)cc(OC)c1OC observed_result=2.56
compound_structure_string=COc1cc(C(=O)c2csc(-c3ccc(NCC(=O)Nc4ccccc4N)cc3)n2)cc(OC)c1OC observed_result=3.21
compound_structure_string=COc1cc(C(=O)c2csc(-c3ccc(NCCC(=O)Nc4ccccc4N)cc3)n2)cc(OC)c1OC observed_result=2.78
compound_structure_string=COc1cc(C(=O)c2csc(-c3ccc(OCCCC(=O)NO)cc3)n2)cc(OC)c1OC observed_result=2.00
compound_structure_string=COc1cc(C(=O)c2csc(-c3ccc(NC(=O)CCCCCC(=O)Nc4ccccc4N)cc3)n2)cc(OC)c1OC observed_result=2.83
compound_structure_string=COc1cc(C(=O)c2csc(-c3ccc(NC(=O)/C=C/C(=O)Nc4ccccc4N)cc3)n2)cc(OC)c1OC observed_result=2.94
compound_structure_string=COc1cc(C(=O)c2csc(-c3ccc(OCc4ccc(/C=C/C(=O)NO)cc4)cc3)n2)cc(OC)c1OC observed_result=3.44
compound_structure_string=COc1cc(C(=O)c2csc(-c3ccc(NC(=O)CCC(=O)NO)cc3)n2)cc(OC)c1OC observed_result=3.40
compound_structure_string=COc1cc(C(=O)c2csc(-c3ccc(NC(=O)CCCCC(=O)NO)cc3)n2)cc(OC)c1OC observed_result=2.89
compound_structure_string=COc1cc(C(=O)c2csc(-c3ccc(OCc4ccc(C(=O)NO)cc4)cc3)n2)cc(OC)c1OC observed_result=3.41
compound_structure_string=COc1cc(C(=O)c2csc(-c3ccc(/C=C/C(=O)NO)cc3)n2)cc(OC)c1OC observed_result=2.00
compound_structure_string=COc1cc(C(=O)c2csc(-c3ccc(NC(=O)CCCCCC(=O)NO)cc3)n2)cc(OC)c1OC observed_result=3.28

====

# system-name: Histone deacetylase 1 (Homo sapiens)
# assay-name: Inhibition of full length recombinant human HDAC1 (1 to 482 residues) expressed in Baculovirus system using Ac-Leu-Gly-Lys (Ac)-AMC as substrate pretreated for 5 mins followed by substrate addition and measured after 30 mins
pIC50: −log10 of the molar value.
Recorded pIC50 by entry
parameter: pIC50

compound_structure_string=COc1cc(C(=O)c2csc(-c3ccc(OCCCCCCC(=O)Nc4ccccc4N)cc3)n2)cc(OC)c1OC observed_result=5.13
compound_structure_string=COc1cc(C(=O)c2csc(-c3ccc(OCc4ccc(C(=O)NO)cc4)cc3)n2)cc(OC)c1OC observed_result=5.14
compound_structure_string=COc1cc(C(=O)c2csc(-c3ccc(NC(=O)CCCCC(=O)NO)cc3)n2)cc(OC)c1OC observed_result=4.78
compound_structure_string=COc1cc(C(=O)c2csc(-c3ccc(/C=C/C(=O)NO)cc3)n2)cc(OC)c1OC observed_result=5.07
compound_structure_string=COc1cc(C(=O)c2csc(-c3ccc(NC(=O)CCCCCCC(=O)Nc4ccccc4N)cc3)n2)cc(OC)c1OC observed_result=5.01
compound_structure_string=COc1cc(C(=O)c2csc(-c3ccc(NC(=O)CC(=O)Nc4ccccc4N)cc3)n2)cc(OC)c1OC observed_result=5.39
compound_structure_string=COc1cc(C(=O)c2csc(-c3ccc(NC(=O)CCC(=O)NO)cc3)n2)cc(OC)c1OC observed_result=5.13
compound_structure_string=COc1cc(C(=O)c2csc(-c3ccc(NC(=O)CCCC(=O)Nc4ccccc4N)cc3)n2)cc(OC)c1OC observed_result=5.04

====

# System: HCT-116
# assay-name: Antiproliferative activity against human HCT-116 cells assessed as inhibition of cell viability measured for 48 hrs by microplate reader based MTT assay
# Format: functional
# recorded-conditions: HCT-116, 48 h
pIC50: −log10 of the molar value.
Recorded pIC50 by entry
parameter: pIC50

compound_structure_string=COc1cc(C(=O)c2csc(-c3ccc(NC(=O)CC(=O)Nc4ccccc4N)cc3)n2)cc(OC)c1OC system_name=HCT-116 parameter=pIC50 observed_result=6.00
compound_structure_string=COc1cc(C(=O)c2csc(-c3ccc(NC(=O)CCCC(=O)Nc4ccccc4N)cc3)n2)cc(OC)c1OC system_name=HCT-116 parameter=pIC50 observed_result=7.30
compound_structure_string=COc1cc(C(=O)c2csc(-c3ccc(C#CCCC(=O)Nc4ccccc4N)cc3)n2)cc(OC)c1OC system_name=HCT-116 parameter=pIC50 observed_result=5.68
compound_structure_string=COc1cc(C(=O)c2csc(-c3ccc(NC(=O)CCCC(=O)NO)cc3)n2)cc(OC)c1OC system_name=HCT-116 parameter=pIC50 observed_result=6.82
compound_structure_string=COc1cc(C(=O)c2csc(-c3ccc(/C=C/C(=O)Nc4ccccc4N)cc3)n2)cc(OC)c1OC system_name=HCT-116 parameter=pIC50 observed_result=6.10
compound_structure_string=COc1cc(C(=O)c2csc(-c3ccc(OCCCCCCC(=O)Nc4ccccc4N)cc3)n2)cc(OC)c1OC system_name=HCT-116 parameter=pIC50 observed_result=5.72
compound_structure_string=COc1cc(C(=O)c2csc(-c3ccc(NC(=O)CCCCC(=O)Nc4ccccc4N)cc3)n2)cc(OC)c1OC system_name=HCT-116 parameter=pIC50 observed_result=6.36
compound_structure_string=COc1cc(C(=O)c2csc(-c3ccccc3)n2)cc(OC)c1OC system_name=HCT-116 parameter=pIC50 observed_result=7.15
compound_structure_string=COc1cc(C(=O)c2csc(-c3ccc(NC(=O)/C=C/C(=O)NO)cc3)n2)cc(OC)c1OC system_name=HCT-116 parameter=pIC50 observed_result=5.55
